The reported numbers originate from PubChem BioAssay AID651699.

Molecular target: NEDD8-conjugating enzyme Ubc12 (Homo sapiens) + NEDD8-activating enzyme E1 regulatory subunit (Homo sapiens) (UniProt P61081+Q13564)
Sequence (P61081 whole entry, looked up): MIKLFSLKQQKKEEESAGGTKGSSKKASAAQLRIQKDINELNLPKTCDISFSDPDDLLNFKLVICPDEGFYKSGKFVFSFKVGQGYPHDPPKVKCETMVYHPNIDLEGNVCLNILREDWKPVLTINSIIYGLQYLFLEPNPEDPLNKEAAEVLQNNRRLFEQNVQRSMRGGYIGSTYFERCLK
Sequence (Q13564 whole entry, looked up): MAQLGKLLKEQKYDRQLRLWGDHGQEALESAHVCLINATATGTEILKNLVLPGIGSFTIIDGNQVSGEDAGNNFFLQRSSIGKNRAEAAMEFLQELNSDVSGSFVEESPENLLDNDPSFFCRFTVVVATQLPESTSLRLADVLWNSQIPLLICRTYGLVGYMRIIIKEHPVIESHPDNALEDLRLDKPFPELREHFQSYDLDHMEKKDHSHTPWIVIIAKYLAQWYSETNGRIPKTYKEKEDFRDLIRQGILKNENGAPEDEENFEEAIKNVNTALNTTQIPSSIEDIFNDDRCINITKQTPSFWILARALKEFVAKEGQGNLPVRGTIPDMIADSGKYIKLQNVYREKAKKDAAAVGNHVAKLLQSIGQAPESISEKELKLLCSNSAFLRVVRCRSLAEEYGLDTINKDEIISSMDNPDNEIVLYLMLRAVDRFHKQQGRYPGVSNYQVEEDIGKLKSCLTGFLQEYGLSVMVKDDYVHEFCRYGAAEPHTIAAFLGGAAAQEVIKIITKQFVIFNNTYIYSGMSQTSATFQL
Experiment: NEDD8 transfer onto cullin, blockade – biochemical, TR-FRET, uHTS, NAE and Ubc12, primary screen (AID 651699)
Conditions: TR-FRET cullin neddylation, at 25 µM, hits give high values
Out of some 360,000 compounds screened, about 2,100 (0.58%) were called active. This is one part of a sample in which actives are shown more often than they occur.
Measured inhibition by item
Express it in %; write the number only.

CN1C2C=C(N(C(=O)c3ccc(Cl)cc3)c3ccccc3)CC1CC2 (stereo not drawn): 0.6
COC(=O)C1=C(c2ccccc2)C[C@@H]2CC[C@H]1N2C(=O)N1CCCCC1: -6.19
COc1cccc(OC)c1C(=O)NC(=S)N1C[C@H]2C[C@H](C1)c1cccc(=O)n1C2: -2.07
CCCCC(=O)N/N=C/c1c(O)n(CC)c(=S)n(CC)c1=O: -37
COC(=O)CN1C(=O)C2(C(C(=O)OC)=C(N)Oc3ccccc32)C2=C1CC(C)(C)CC2=O (stereo not drawn): 0.61

Endpoint output: inhibition of "O=C(c1cc(S(=O)(=O)N2CCOCC2)ccc1F)N1CCC2(CC1)OCCO2" . Value?
4.52

Given "CCN1C(=O)NC(=O)C2(CCCC2)C1=O" , state its recorded inhibition.
1.81

Requested field: inhibition. Item: "O=C(CCC(=O)N1C[C@H]2C[C@@H](C1)c1cccc(=O)n1C2)NCc1ccccc1C(F)(F)F"
-4.64

Consider the compound shown here: "CCCCCn1c(=O)c(C(=O)NCc2ccccn2)c(O)c2ccccc21" What is its recorded inhibition?
4.17

What does the record list as inhibition for "COP(=O)(NS(=O)(=O)c1ccccc1)OC" ?
-0.79

Entry "CCCCC(=O)N/N=C/c1c(O)n(CCC2=CCCCC2)c(=O)[nH]c1=O" has what inhibition?
52.9

I'd like to know its inhibition. The compound in question is COc1ccc2c(c1)[C@]13CCCCC1C(C2)N(C)CC3 (stereo partly drawn)
-8.52

# input compound: "c1ccc2sc(N3CCNCC3)nc2c1" ; wanted: its inhibition
1.66
